Literature compilation of log10(IC50) measurements on RORc (Homo sapiens).
measuredQuantity: log10(IC50) (log10 of the value in nM)

1) C[C@H]1CCC(c2ccccc2)S(=O)(=O)N1Cc1ccc(OCc2ccncc2)cc1 (single isomer, unassigned)	2.06
2) Cc1nnc(OC[C@@]23CC[C@@H](c4cc(-c5c(F)cccc5F)nnc42)C3(C)C)o1	2.46
3) CCNC(=O)[C@@H](CC)O[C@@]12CC[C@@H](c3cc(-c4c(F)cccc4F)nnc31)C2(C)C	3.00
4) CC1(C)[C@H]2CC[C@]1(c1nc(C#N)ncc1Cl)c1nnc(-c3c(F)cccc3F)cc12	1.14
5) C[C@H]1CN(C(=O)[C@]23CC[C@H](c4cc(-c5c(F)cccc5F)nnc42)C3(C)C)C[C@@H]1O	3.47
6) CC(C)(O)c1ccc(-c2cncc([C@@]34CC[C@@H](c5cc(-c6c(F)cccc6F)nnc53)C4(C)C)n2)cn1	0.74
7) CN(C)Cc1nc(C[C@@]23CC[C@@H](c4cc(-c5c(F)cccc5F)nnc42)C3(C)C)no1	2.47
8) CC1(C)[C@H]2CC[C@]1(c1ccnc(C3CCOCC3)n1)c1nnc(-c3c(F)cccc3F)cc12	0.38
9) C[C@H]1CC[C@@H](c2ccccc2)S(=O)(=O)N1Cc1ccc(C2(O)CCS(=O)(=O)CC2)cc1F	3.08
10) CC(C)C(=O)N[C@@]12CC[C@@H](c3cc(-c4ccccc4F)nnc31)C2(C)C	3.72
11) CN1CCN(C)[C@H]([C@@]23CC[C@@H](c4cc(-c5c(F)cccc5F)nnc42)C3(C)C)C1	1.20
12) Cn1c([C@@]23CC[C@@H](c4cc(-c5c(F)cccc5F)nnc42)C3(C)C)ccc(C#N)c1=O	2.03
13) CNC(=O)c1ccnc([C@@]23CC[C@@H](c4cc(-c5c(F)cccc5F)nnc42)C3(C)C)c1	1.70
14) CC(=O)N1CCN(c2ccc(S(=O)(=O)N(CC(C)C)c3ccccc3C(F)(F)F)cc2)CC1	1.45
15) CC1(C)[C@H]2CC[C@]1(c1ccnc(-n3ccnn3)n1)c1nnc(-c3c(F)cccc3F)cc12	0.88
16) C[C@H]1CC[C@H](c2ccccc2)S(=O)(=O)N1Cc1cc(F)c([C@H](OC2CCOCC2)C(N)=O)cc1F	1.81
17) CC1(C)[C@H]2CC[C@]1(c1cncc(-c3nnc(CO)o3)n1)c1nnc(-c3c(F)cccc3F)cc12	1.42
18) CC(C)CN(Cc1ccc(-c2cncc(C#N)c2)s1)S(=O)(=O)Cc1ccccc1	3.49
19) CC[C@H](O[C@@]12CC[C@@H](c3cc(-c4c(F)cccc4F)nnc31)C2(C)C)C(=O)OC	2.00
20) CC(C)CN(c1cccc(Cl)c1)S(=O)(=O)c1ccc(N2CCN(S(=O)(=O)N(C)C)CC2)cc1	1.79
21) CC1(C)[C@H]2CC[C@]1(c1cncc(C(=O)NC[C@@H](O)CO)n1)c1nnc(-c3c(F)cccc3F)cc12	1.84
22) C[C@H]1CC[C@H](c2ccccc2)S(=O)(=O)N1Cc1ccc(C2(C#N)CCOCC2)cc1F	2.27
23) CC(C)CN(Cc1ccc(-c2cccc(S(C)(=O)=O)c2)s1)S(=O)(=O)c1cccc(C#N)c1	3.38
24) CC(C)(O)c1cc(-c2nccc([C@@]34CC[C@@H](c5cc(-c6c(F)cccc6F)nnc53)C4(C)C)n2)ccn1	0.41
25) CC(=O)NC(C)(C)[C@@]12CC[C@@H](c3cc(-c4c(F)cccc4F)nnc31)C2(C)C	1.90
26) CC1(C)[C@H]2CC[C@]1([C@H]1CCCN(C(=O)c3cn[nH]c3)C1)c1nnc(-c3c(F)cccc3F)cc12	0.92
27) C[C@H]1CC[C@H](c2ccccc2)S(=O)(=O)N1Cc1ccc(C2(CCO)COC2)cc1F	1.78
